# assaySummary: Luciferase activity of purified RLuc mutants (light output integrated over 10 s, luminometer)
# Assay type: biochemical
# conditionSummary: native coelenterazine; relative to native enzyme
# cutoff 0.05 applies to Activity (relative to RLuc) native; >= gives true, < gives false

[
  {
    "molecule": "C124A/F262L: RLuc mutant C124A/F262L (protein) MASKVYDPEQRKRMITGPQWWARCKQMNVLDSFINYYDSEKHAENAVIFLHGNAASSYLWRHVVPHIEPVARCIIPDLIGMGKSGKSGNGSYRLLDHYKYLTAWFELLNLPKKIIFVGHDWGAALAFHYSYEHQDKIKAIVHAESVVDVIESWDEWPDIEEDIALIKSEEGEKMVLENNFFVETMLPSKIMRKLEPEEFAAYLEPFKEKGEVRRPTLSWPREIPLVKGGKPDVVQIVRNYNAYLRASDDLPKMFIESDPGFLSNAIVEGAKKFPNTEFVKVKGLHFSQEDAPDEMGKYIKSFVERVLKNEQ",
    "classification": "false"
  },
  {
    "molecule": "C124A/F261L/F262L: RLuc mutant C124A/F261L/F262L (protein) MASKVYDPEQRKRMITGPQWWARCKQMNVLDSFINYYDSEKHAENAVIFLHGNAASSYLWRHVVPHIEPVARCIIPDLIGMGKSGKSGNGSYRLLDHYKYLTAWFELLNLPKKIIFVGHDWGAALAFHYSYEHQDKIKAIVHAESVVDVIESWDEWPDIEEDIALIKSEEGEKMVLENNFFVETMLPSKIMRKLEPEEFAAYLEPFKEKGEVRRPTLSWPREIPLVKGGKPDVVQIVRNYNAYLRASDDLPKMFIESDPGLLSNAIVEGAKKFPNTEFVKVKGLHFSQEDAPDEMGKYIKSFVERVLKNEQ",
    "classification": "false"
  },
  {
    "molecule": "C124A/S257G: RLuc mutant C124A/S257G (protein) MASKVYDPEQRKRMITGPQWWARCKQMNVLDSFINYYDSEKHAENAVIFLHGNAASSYLWRHVVPHIEPVARCIIPDLIGMGKSGKSGNGSYRLLDHYKYLTAWFELLNLPKKIIFVGHDWGAALAFHYSYEHQDKIKAIVHAESVVDVIESWDEWPDIEEDIALIKSEEGEKMVLENNFFVETMLPSKIMRKLEPEEFAAYLEPFKEKGEVRRPTLSWPREIPLVKGGKPDVVQIVRNYNAYLRASDDLPKMFIEGDPGFFSNAIVEGAKKFPNTEFVKVKGLHFSQEDAPDEMGKYIKSFVERVLKNEQ",
    "classification": "true"
  }
]

Okay, now this molecule:
Reported Activity (relative to RLuc) native at or above 0.05? F116L/C124A: RLuc mutant F116L/C124A (protein) MASKVYDPEQRKRMITGPQWWARCKQMNVLDSFINYYDSEKHAENAVIFLHGNAASSYLWRHVVPHIEPVARCIIPDLIGMGKSGKSGNGSYRLLDHYKYLTAWFELLNLPKKIILVGHDWGAALAFHYSYEHQDKIKAIVHAESVVDVIESWDEWPDIEEDIALIKSEEGEKMVLENNFFVETMLPSKIMRKLEPEEFAAYLEPFKEKGEVRRPTLSWPREIPLVKGGKPDVVQIVRNYNAYLRASDDLPKMFIESDPGFFSNAIVEGAKKFPNTEFVKVKGLHFSQEDAPDEMGKYIKSFVERVLKNEQ
true
